SYSTEM_NAME: Nuclear receptor ROR-gamma (Mus musculus) (UniProt P51450)
Sequence (P51450 whole entry, looked up): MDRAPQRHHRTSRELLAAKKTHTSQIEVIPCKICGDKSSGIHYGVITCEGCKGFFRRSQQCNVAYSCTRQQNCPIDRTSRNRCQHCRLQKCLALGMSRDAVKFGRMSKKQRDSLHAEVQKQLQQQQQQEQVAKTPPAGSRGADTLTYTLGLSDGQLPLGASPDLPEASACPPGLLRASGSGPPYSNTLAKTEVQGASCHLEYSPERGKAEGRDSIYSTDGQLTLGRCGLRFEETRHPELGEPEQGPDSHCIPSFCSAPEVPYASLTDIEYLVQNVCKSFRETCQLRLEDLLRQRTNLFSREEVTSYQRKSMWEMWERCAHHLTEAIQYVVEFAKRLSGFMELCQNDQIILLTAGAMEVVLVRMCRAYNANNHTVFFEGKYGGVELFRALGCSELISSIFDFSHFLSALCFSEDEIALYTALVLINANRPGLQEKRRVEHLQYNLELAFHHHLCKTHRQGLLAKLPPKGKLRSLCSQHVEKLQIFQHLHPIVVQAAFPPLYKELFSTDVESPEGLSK
EXPERIMENT_SUMMARY: qHTS for inhibitors of ROR gamma transcriptional activity; also: nearly all actives have a fitted effect of over 60% in size
EXPERIMENTAL_CONTEXT: Drosophila S2 Gal4-RORgamma UAS-luciferase reporter, 20 h; series mostly up to 53.6 µM
Hit rate of the full screen: of about 310,000 compounds, about 17,000 (5.5%) were called active. Inconclusive results (about 11%) are left out. Calls follow the shape of the dose curve; as a rule, active = well fitted inhibition curve with a large enough effect; inconclusive = small, poorly fitted or top-dose-only effect, or effect the other way; inactive = no such curve, though single readings can be large or run the other way. For the sample, actives were picked, then their nearest neighbours and some compounds at random.
Outcome field: choose from TRUE = active, FALSE = inactive

How was COc1ccc(NC(=O)C(C)N2c3cccc4cccc(c34)S2(=O)=O)c(OC)c1 (stereo unspecified) classified in this test?
FALSE

Also CN(C(=O)CC1C(=O)NCCN1Cc1ccc(F)cc1Cl)C1CCCCC1 (stereo unspecified) , if possible.
TRUE

Also O=C(CCC(=O)c1cccs1)NCc1ccccc1 , if possible.
FALSE

New cases:
How was O=C(NCC(=O)N1CCN(c2ccccc2F)CC1)c1cccs1 classified in this test?
FALSE

Also CCn1ccnc1CNC(=O)CC1C(=O)NCCN1Cc1ccc(F)cc1Cl (stereo unspecified) , if possible.
FALSE

Also Cc1ccccc1C(CC(=O)c1cccs1)C(C#N)C#N (stereo unspecified) , if possible.
TRUE

* * *

SYSTEM_NAME: Nuclear receptor ROR-gamma (Mus musculus)
EXPERIMENT_SUMMARY: qHTS for inhibitors of ROR gamma transcriptional activity; also: nearly all actives have a fitted effect of over 60% in size; also: potency is read from the fitted curve at half-maximal effect
EXPERIMENTAL_CONTEXT: Drosophila S2 Gal4-RORgamma UAS-luciferase reporter, 20 h; series mostly up to 53.6 µM
Out of some 310,000 compounds screened, about 17,000 (5.5%) were called active. Not shown: some 11% with an inconclusive outcome. For the sample, actives were picked, then their nearest neighbours and some compounds at random.
QUANTITY_KIND: Potency

Which Potency is listed for COc1ccc(CC(=O)Nc2nc3n(n2)C(c2ccccc2)CC(=O)N3)cc1OC (stereo not drawn) ?
inactive

Also O=C(NCc1ccccn1)c1cc(Br)ccc1Cl , if possible.
inactive

Also Cc1cc(S(=O)(=O)NCc2ccccn2)c(Cl)cc1Cl , if possible.
7.08 µM (active)

Also COc1ccc(N(CC(=O)N2CCOCC2)S(=O)(=O)c2ccccc2)cc1Cl , if possible.
inactive

Also COc1cccc(CNC(=O)C2CCCN(c3ncnc4c3nc3n4CCCCC3)C2)c1 (stereo not drawn) , if possible.
inactive

Also Cc1c(Cl)cccc1NC(=O)NCc1ccc(C)n1C , if possible.
inactive

Parameters: items (list). Returns: Potency for each item.
1. CSc1ccccc1NC(=O)c1cc(Cl)sc1Cl
2. O=C(O)c1cccc(S(=O)(=O)Nc2ccc(O)cc2Sc2nc3ccccc3s2)c1
3. CCOc1ccc2[nH]c(C(=O)N/N=C/c3cccc(OC)c3OC)cc2c1
4. COC(=O)c1cc(NS(=O)(=O)c2ccc3c(c2)c(=O)n(C)c(=O)n3C)cc(C(=O)OC)c1

inactive
10 µM (active)
inactive
inactive

Parameters: items (list). Returns: Potency for each item.
1. CCOC(=O)C1=C(c2ccc(OC)cc2)C(=O)c2ccccc2C1=O
2. Cc1ccc(SCc2c(C(=O)N/N=C/c3cccnc3)nnn2-c2nonc2N)cc1

["6.31 µM (active)", "inactive"]

Parameters: items (list). Returns: Potency for each item.
1. Cc1ccc(SCc2c(C(=O)N/N=C/C3CC=CCC3)nnn2-c2nonc2N)cc1 (stereo not drawn)
2. CC1(C)Cc2c(sc3nc4n(c(=N)c23)CCCCC4)CO1
3. COC(=O)c1cc(S(=O)(=O)NCC2CCN(Cc3ccc(Cl)cc3)CC2)cn1C
4. O=S(=O)(NCc1ccccn1)c1ccc(Br)s1
5. O=C(NCc1cccnc1)C12CC3CC(CC(C3)C1)C2
6. CCCCC(C(=O)OCC(=O)c1ccc(OC)cc1)N1C(=O)c2ccccc2C1=O (stereo not drawn)
7. CC1CC(c2ccccc2)n2nc(NC(=O)c3cccs3)nc2N1 (stereo not drawn)

1. inactive
2. inactive
3. inactive
4. 8.91 µM (active)
5. inactive
6. inactive
7. 14.1 µM (active)

* * *

SYSTEM_NAME: Nuclear receptor ROR-gamma (Mus musculus)
EXPERIMENT_SUMMARY: qHTS for inhibitors of ROR gamma transcriptional activity; also: nearly all actives have a fitted effect of over 60% in size
EXPERIMENTAL_CONTEXT: Drosophila S2 Gal4-RORgamma UAS-luciferase reporter, 20 h; series mostly up to 53.6 µM
Among all 310,000 compounds or so, about 17,000 (5.5%) were called active. Not shown: some 11% with an inconclusive outcome. Calls come from the whole dose curve; as a rule, active = well fitted inhibition curve with a large enough effect; inconclusive = small, poorly fitted or top-dose-only effect, or effect the other way; inactive = no such curve, though single readings can be large or run the other way. The sample as a whole holds a higher share of actives than the screen did.
Outcome field: choose from TRUE for active, FALSE for inactive

How was COc1ccc(/C=C(/NC(=O)c2ccc(C)cc2)c2nc3ccccc3[nH]2)cc1OC classified in this test?
FALSE

Also CC(C)(C)c1cc[n+](-c2[nH]c(=O)sc2/C=N/N=C(\[O-])c2ccccc2)cc1 , if possible.
FALSE

Also COC(=O)Nc1ccc(S(=O)(=O)Nc2cc(OC)nc(OC)n2)cc1 , if possible.
FALSE

Also COc1ccc(-c2noc(CNC(=O)C(C)Oc3ccccc3)n2)cc1 (stereo not given) , if possible.
FALSE

Also COc1ccc(/C=C2/S/C(=N/N=C3\CC4CCC3(C)C4(C)C)NC2=O)cc1 (stereo not given) , if possible.
TRUE

Also CCOC(=O)c1sc(NC(=O)c2sc(C)nc2C)nc1C , if possible.
FALSE

Also COc1cc(NS(=O)(=O)c2ccc(N/C=C(\C=O)c3nc4cc(Cl)ccc4o3)cc2)nc(OC)n1 , if possible.
TRUE

Also CC1CCN(C(=O)Cn2nnnc2CN2CCOCC2)CC1 , if possible.
FALSE

Also COc1ccc(/C=C2\SC(=N)N(c3ccc(F)cc3)C2=O)cc1 , if possible.
FALSE

New cases:
How was O=C(Nc1cccc(-c2cscn2)c1)C1CCN(Cc2ccsc2)CC1 classified in this test?
FALSE

* * *

SYSTEM_NAME: Nuclear receptor ROR-gamma (Mus musculus) (UniProt P51450)
EXPERIMENT_SUMMARY: qHTS for inhibitors of ROR gamma transcriptional activity; also: nearly all actives have a fitted effect of over 60% in size
EXPERIMENTAL_CONTEXT: Drosophila S2 Gal4-RORgamma UAS-luciferase reporter, 20 h; series mostly up to 53.6 µM
The whole screen tested about 310,000 compounds, of which about 17,000 (5.5%) were called active. Inconclusive results (about 11%) are left out. The call rests on the fitted dose curve; in most records, active means well fitted inhibition curve with a large enough effect; inconclusive means small, poorly fitted or top-dose-only effect, or effect the other way; inactive means no such curve, though single readings can be large or run the other way. Many of the other results were omitted from the sample, so actives are more common in it than they were.
Outcome field: choose from Y for active, N for inactive

How was O=C(NCc1cccc(Cl)c1)C1CCC(=O)N(C2CC2)C1 (stereo unspecified) classified in this test?
N

Also CN1CCN(C(=O)c2ccccc2NC(=O)COc2ccccc2Cl)CC1 , if possible.
N

Also COc1ccccc1NC(=O)/C=C/C(N)=O , if possible.
Y

Also COc1ccc(CNS(=O)(=O)c2ccc(-c3cnc(C4CC4)o3)cc2)cc1 , if possible.
N

Also COC(=O)c1ccccc1NC(=S)NC(=O)c1ccccc1F , if possible.
Y

New cases:
How was NC(=O)c1ccccc1NC(=O)c1ccccc1F classified in this test?
N

* * *

SYSTEM_NAME: Nuclear receptor ROR-gamma (Mus musculus)
EXPERIMENT_SUMMARY: qHTS for inhibitors of ROR gamma transcriptional activity; also: nearly all actives have a fitted effect of over 60% in size
EXPERIMENTAL_CONTEXT: Drosophila S2 Gal4-RORgamma UAS-luciferase reporter, 20 h; series mostly up to 53.6 µM
Out of some 310,000 compounds screened, about 17,000 (5.5%) were called active. Another 11% or so got no clear call; they are omitted. The call rests on the fitted dose curve; in most records, active means well fitted inhibition curve with a large enough effect; inconclusive means small, poorly fitted or top-dose-only effect, or effect the other way; inactive means no such curve, though single readings can be large or run the other way. For the sample, actives were picked, then their nearest neighbours and some compounds at random.
Outcome field: choose from label 1 (active), label 0 (inactive)

As a guide, the following entries are already answered.
How was C/C(=N\NC(=S)NC1CCCCC1)c1ccc(C)o1 classified in this test?
label 1

Also CCOCCCn1c(SCC(=O)Nc2cc(OC)ccc2OC)nc2ccccc2c1=O , if possible.
label 0

Also Cc1cc(C)c(S(=O)(=O)Nc2c(C)n(C)n(-c3ccccc3)c2=O)cc1[N+](=O)[O-] , if possible.
label 0

Also COc1ccc(N2C(=O)C3C(C2=O)C(C(=O)c2ccccc2)N2CCCC32)cc1 (centres undefined) , if possible.
label 1

Also C/C(=N\NC(=O)NC1CCCCC1)c1ccc(OC(F)F)cc1OC(F)F , if possible.
label 0

Also COc1cc(OC)c(OC)cc1CN1CCN(C(=O)c2cccc3ccccc23)CC1 , if possible.
label 0

Also Cc1cccc(-c2noc(CCC(=O)NC3CCCC3)n2)c1 , if possible.
label 0

Also O=C(Nc1nnc(-c2ccc(Cl)cc2)o1)c1ccccc1Br , if possible.
label 1

New cases:
How was Cc1nonc1NC(=O)c1ccccc1Br classified in this test?
label 0

Also COc1cc(SC)ccc1C(=O)Nc1cc(C)ccn1 , if possible.
label 1

Also CC(NC(=O)COc1ccc(-c2ccccc2)cc1)C1CCCO1 (centres undefined) , if possible.
label 0

Also COc1ccccc1CNC(=O)c1ccc(SC)cc1OC , if possible.
label 0

Recorded values, source PubChem BioAssay AID2551.
